Measured values drawn from ChEMBL document CHEMBL1132756 for this set.

# Tested on: HeLa
# EXPERIMENT: In vitro antiproliferative activity against human cervix adenocarcinoma (HeLa) cells
# Format: functional, cell-based
pIC50: −log10 of the molar value.
ASSAY READOUT: pIC50

> print(dat)
                                   compound  censoring.operator  recorded.result
1         Cc1cc(=O)oc2c1c(O)cc1oc3ccccc3c12                   <             4.70
2                 COc1c2occc2cc2ccc(=O)oc12                   =             5.00
3  Cc1cc(=O)oc2c1c(OCCCN(C)C)cc1oc3ccccc3c12                   =             5.95
4        COc1cc2oc3ccccc3c2c2oc(=O)cc(C)c12                   <             4.70
